molecular target: IDO1 expressed in CT26 cells (Mus musculus); test: IDO1 inhibitory assay in cell lines (kynurenine, IFN-γ induced), CT26; assay type: cell-based; conditions: 100 μM inhibitor concentration
Sequence (P28776 whole entry): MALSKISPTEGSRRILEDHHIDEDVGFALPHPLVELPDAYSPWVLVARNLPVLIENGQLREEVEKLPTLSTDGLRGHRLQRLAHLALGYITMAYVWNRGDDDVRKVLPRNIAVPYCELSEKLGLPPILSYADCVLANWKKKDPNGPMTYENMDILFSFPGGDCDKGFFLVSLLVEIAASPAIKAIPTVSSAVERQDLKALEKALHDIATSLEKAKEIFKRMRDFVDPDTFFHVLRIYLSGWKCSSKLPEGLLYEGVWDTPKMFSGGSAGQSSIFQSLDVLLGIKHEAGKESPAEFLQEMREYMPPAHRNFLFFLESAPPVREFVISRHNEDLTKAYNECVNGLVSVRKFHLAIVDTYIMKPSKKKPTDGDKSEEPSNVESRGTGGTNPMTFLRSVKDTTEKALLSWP
parameter-measured: inhibition at 100 µM (%)

In the examples that follow, each entry is paired with its recorded inhibition at 100 µM.
>>> print(df.to_string())
                      smiles_representation                             target_entity    parameter_measured  units_symbol  quantitative_readout
0  COC(=O)[C@H]1N[C@@H](c2ccccc2)[C@@]2(C(=O)Nc3cc(C)ccc32)[C@@H]1c1ccccc1  IDO1 expressed in CT26 cells (Mus musculus)  inhibition at 100 µM             %                   4.2
1  COC(=O)[C@H]1N[C@@H](c2ccccc2)[C@@]2(C(=O)Nc3ccccc32)[C@@H]1c1ccccc1  IDO1 expressed in CT26 cells (Mus musculus)  inhibition at 100 µM             %                   3.7

a = COC(=O)[C@H]1N[C@@H](c2ccccc2)[C@@]2(C(=O)Nc3cc(OC)ccc32)[C@@H]1c1ccccc1
b = COC(=O)[C@@H]1N[C@H](c2ccc(Br)cc2)[C@]2(C(=O)Nc3ccccc32)[C@H]1c1ccccc1
Task item: Could you determine which record has the numerically smaller inhibition at 100 µM? Candidates: a and b Identify your pick by its label.
Reply: b
